Would you mind telling me the reported pIC50 of each entry?
subject.of.test: VIM-1 (Pseudomonas aeruginosa (strain ATCC 15692 / DSM 22644 / CIP 104116 / JCM 14847 / LMG 12228 / 1C / PRS 101 / PAO1), UniProt A0A0F7KYQ8)
assay.remarks: Enzyme activity: determination of IC50, fluorescence assay with CCF2-FA substrate (VIM-1)
Type: biochemical
condition.label: VIM-1 IC50, VIM-1 enzyme, CCF2-FA fluorescence assay
Give bare numbers, as −log10 of the molar value.

Consider the reported pIC50 for these compounds:
Lookup: Fill in the blank: the reported pIC50 of N=CNCc1ccc(-c2ccc(Br)c(S(N)(=O)=O)c2-c2nn[nH]n2)cc1 is ____.
Found: 8.39

Lookup: What would you report for Cc1ccc(-c2cc(-c3ccc4c(c3)CNC4)cc(S(N)(=O)=O)c2-c2nn[nH]n2)cc1 ?
Found: 6.72

Lookup: Another compound to check: Nc1ncc2ccc(-c3cccc(S(N)(=O)=O)c3-c3nnn[nH]3)cc2n1
Found: 7.51

For the next question, use this compound.
Lookup: Look up pIC50 for this compound: NS(=O)(=O)c1cccc(-c2ccc(CNC3CCNC3=O)cc2)c1-c1nnn[nH]1 (stereo not shown)
Found: 6.56

====

subject.of.test: UniProt:P52699
assay.remarks: biochemical
Format: biochemical
condition.label: IMP-1 enzyme, CCF2-FA substrate; read-out: IMP-1 IC50
The threshold is 7 nM. Values of IC50 beneath it are tagged 1 (yes); values meeting or exceeding it are tagged 0 (no).

# count of solved cases: 4
Lookup: Does the reported IC50 of the following compound sit strictly below 7 nM? N=C(N)NC[C@H]1CC[C@H](c2ccc(C(F)(F)F)c(S(N)(=O)=O)c2-c2nnn[nH]2)CC1
Found: 1 (yes)

Lookup: Another compound: N=C(NC1CNC1)c1ccc(-c2ccc(C(F)(F)F)c(S(N)(=O)=O)c2-c2nn[nH]n2)cc1
Found: 0 (no)

Lookup: NS(=O)(=O)c1c(C(F)(F)F)ccc(-c2ccc3c(c2)CCNC3)c1-c1nnn[nH]1 , same question.
Found: 0 (no)

Lookup: Cool, now NS(=O)(=O)c1c(C[C@H]2CC[C@H](N)CC2)ccc(-c2ccc(C3CNC3)cc2)c1-c1nn[nH]n1
Found: 0 (no)

Consider the record given below.
Lookup: In the record for NC(=O)CN1CCC(Cc2ccc(-c3ccc(C4CNC4)cc3)c(-c3nn[nH]n3)c2S(N)(=O)=O)CC1 , is IC50 less than 7 nM?
Found: 0 (no)

====

subject.of.test: IMP-1 (Serratia marcescens, UniProt P52699)
Sequence (P52699 whole entry, looked up): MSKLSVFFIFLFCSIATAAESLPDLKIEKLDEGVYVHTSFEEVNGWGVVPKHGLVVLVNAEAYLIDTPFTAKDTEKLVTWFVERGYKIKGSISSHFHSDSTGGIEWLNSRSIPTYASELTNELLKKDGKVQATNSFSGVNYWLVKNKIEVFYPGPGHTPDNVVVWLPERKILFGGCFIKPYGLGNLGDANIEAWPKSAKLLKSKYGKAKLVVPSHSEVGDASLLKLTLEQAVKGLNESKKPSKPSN
assay.remarks: biochemical
Type: biochemical
condition.label: fluorescence assay with CCF2-FA substrate; read-out: IMP-1 IC50
Okay, here is how we bin by IC50: lo (below 100 nM), med (100 nM to below 600 nM), hi (600 nM or more)

Lookup: Where would Nc1cc(-c2cccc(S(N)(=O)=O)c2-c2nnn[nH]2)cc(N)n1 [Example 133] land among the classes by reported IC50?
Found: hi

Lookup: Thanks! And NS(=O)(=O)c1c(C(F)(F)F)ccc(N2CCC(C3CCNCC3)CC2)c1-c1nnn[nH]1 [Example 779] ?
Found: lo

Lookup: Cool, now Cc1ccc(-c2ccnc(S(N)(=O)=O)c2-c2nnn[nH]2)cc1 [Example 190]
Found: hi

Lookup: Do the same for NS(=O)(=O)c1c(C(F)(F)F)ccc([C@H]2CC[C@@H](C3CCNCC3)CC2)c1-c1nnn[nH]1 [Example 831] please
Found: lo

Lookup: Can you handle CN1CCN(c2ncc(-c3cccc(S(N)(=O)=O)c3-c3nnn[nH]3)cn2)CC1 [Example 128] next?
Found: med

Lookup: Next compound: N#Cc1ccc2[nH]c(-c3cccc(S(N)(=O)=O)c3-c3nn[nH]n3)cc2c1 [Example 99]
Found: med

Continuing:
Lookup: Which band does NS(=O)(=O)c1cccc(C#CCC2CNCCO2)c1-c1nn[nH]n1 (stereo not shown) [Example 145] fall in?
Found: hi

Lookup: Subsequent entry: NS(=O)(=O)c1nccc(NCCc2ccccc2)c1-c1nnn[nH]1 [Example 237]
Found: med

Lookup: Follow-up item: NS(=O)(=O)c1cccc(C2CCCN(C(=O)C3CC3)C2)c1-c1nn[nH]n1 (stereo not shown) [Example 177]
Found: hi

Lookup: Request: NS(=O)(=O)c1cccc(Cc2ccccc2)c1-c1nnn[nH]1 [Example 162]
Found: med

Lookup: // repeat for Cc1nc(F)ccc1-c1cccc(S(N)(=O)=O)c1-c1nn[nH]n1 [Example 79] and report
Found: hi

Lookup: // same read-out, input: NC1(CNC2CCC(c3ccc(C(F)(F)F)c(S(N)(=O)=O)c3-c3nnn[nH]3)CC2)CC1 (stereo not shown) [Example 830]
Found: lo

Lookup: // same read-out, input: CCNC(=O)N1CCC(c2cccc(S(N)(=O)=O)c2-c2nn[nH]n2)CC1 [Example 174]
Found: med

Lookup: Follow-up entry: NS(=O)(=O)c1c(C(F)(F)F)ccc(-c2ccc(C3CCN(C4CCNCC4)CC3)cc2)c1-c1nnn[nH]1 [Example 785]
Found: lo

Lookup: Another compound to check: NS(=O)(=O)c1nccc(N2CCCC(c3ccccn3)C2)c1-c1nnn[nH]1 (stereo not shown) [Example 220]
Found: hi

Lookup: Entry to check: NS(=O)(=O)c1cccc(-c2cnn(Cc3ccccn3)c2)c1-c1nn[nH]n1 [Example 101]
Found: med

Lookup: Now consider CN(C)CCNC(=O)c1ccc(-c2cccc(S(N)(=O)=O)c2-c2nn[nH]n2)cc1 [Example 87] .
Found: hi

Lookup: What do you get for CS(=O)(=O)N1CCC(c2cccc(S(N)(=O)=O)c2-c2nn[nH]n2)CC1 [Example 172] ?
Found: hi

Lookup: Entry to check: NS(=O)(=O)c1nccc(-c2ccc3c(c2)CNC3=O)c1-c1nnn[nH]1 [Example 196]
Found: hi

Lookup: And the next one, NS(=O)(=O)c1c(C(F)(F)F)ccc(N2CCN(CCCO)CC2)c1-c1nnn[nH]1 [Example 763] ?
Found: lo

Lookup: Can you check NS(=O)(=O)c1nccc(NCCC2CCCCC2)c1-c1nnn[nH]1 [Example 236] next?
Found: med

Lookup: Note, next up: N#Cc1ccccc1Cc1cccc(S(N)(=O)=O)c1-c1nnn[nH]1 [Example 166]
Found: lo

Lookup: Same question for CCOC(=O)N1CCC(c2cccc(S(N)(=O)=O)c2-c2nn[nH]n2)CC1 [Example 173] please.
Found: med

Lookup: Next: NS(=O)(=O)c1nccc(-c2ccc3c(c2)OCC(=O)N3)c1-c1nn[nH]n1 [Example 205]
Found: med

Lookup: Now this one: NS(=O)(=O)c1cccc(-c2ccc(C(O)C(F)(F)F)cc2)c1-c1nn[nH]n1 (stereo not shown) [Example 3]
Found: lo

Lookup: Now the same for NS(=O)(=O)c1cccc(-c2cnn3c2CCCC3)c1-c1nn[nH]n1 [Example 107]
Found: med

Lookup: Another: NS(=O)(=O)c1cccc(-c2ccc3ncccc3c2)c1-c1nn[nH]n1 [Example 66]
Found: med

Lookup: Another: NC1CCC2CN(c3ccc(C(F)(F)F)c(S(N)(=O)=O)c3-c3nnn[nH]3)CC2C1 (stereo not shown) [Example 767]
Found: med
